Target: T1, human DLL3 endogenously expressed on SHP77 and NCI-H82 cells (human, UniProt Q9NYJ7 27-618)
T1 construct: whole, on cells; cells endogenously expressing DLL3; also called SHP77 cells; SHP-77 cells
T1 sequence (looked up): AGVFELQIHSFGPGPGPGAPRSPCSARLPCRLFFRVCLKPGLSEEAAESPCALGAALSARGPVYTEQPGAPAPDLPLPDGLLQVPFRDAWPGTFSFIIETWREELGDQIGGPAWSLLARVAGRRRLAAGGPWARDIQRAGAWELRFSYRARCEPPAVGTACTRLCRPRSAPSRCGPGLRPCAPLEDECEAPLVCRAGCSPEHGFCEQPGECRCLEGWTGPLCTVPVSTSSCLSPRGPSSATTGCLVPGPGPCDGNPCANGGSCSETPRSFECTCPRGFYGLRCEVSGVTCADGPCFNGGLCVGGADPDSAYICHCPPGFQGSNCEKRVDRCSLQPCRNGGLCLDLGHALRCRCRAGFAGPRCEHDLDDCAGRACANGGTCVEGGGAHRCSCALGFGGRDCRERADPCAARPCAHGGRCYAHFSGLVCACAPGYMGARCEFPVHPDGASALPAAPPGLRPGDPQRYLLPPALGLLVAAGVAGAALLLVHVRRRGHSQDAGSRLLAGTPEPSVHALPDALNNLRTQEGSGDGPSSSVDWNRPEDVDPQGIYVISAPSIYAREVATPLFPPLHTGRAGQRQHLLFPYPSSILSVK
Experiment: FACS, SHP77 and NCI-H82 cells
MEASUREMENT_TYPE: binding result

>>> result("Hab015VL4VH5a-hFc (Fc fusion, humanized mab015, VL-linker-VH-human IgG1 Fc; also called Hab015L4H5a; not shown: linker; human IgG1 Fc fragment) scFv (part 1 of 2): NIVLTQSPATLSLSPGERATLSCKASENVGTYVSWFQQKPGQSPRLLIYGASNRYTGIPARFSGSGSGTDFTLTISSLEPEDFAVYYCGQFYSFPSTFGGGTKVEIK scFv (part 2 of 2): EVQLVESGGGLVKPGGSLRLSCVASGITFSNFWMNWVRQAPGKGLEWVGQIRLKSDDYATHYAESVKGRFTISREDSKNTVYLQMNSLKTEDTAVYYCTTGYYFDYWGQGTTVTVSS")
"binds"
>>> result("Hab014VL2VH1-hFc (Fc fusion, humanized mab014, VL-linker-VH-human IgG1 Fc; not shown: linker; human IgG1 Fc fragment) scFv (part 1 of 2): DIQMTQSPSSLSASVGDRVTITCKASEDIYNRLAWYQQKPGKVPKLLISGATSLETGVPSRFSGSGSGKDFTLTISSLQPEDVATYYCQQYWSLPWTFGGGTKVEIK scFv (part 2 of 2): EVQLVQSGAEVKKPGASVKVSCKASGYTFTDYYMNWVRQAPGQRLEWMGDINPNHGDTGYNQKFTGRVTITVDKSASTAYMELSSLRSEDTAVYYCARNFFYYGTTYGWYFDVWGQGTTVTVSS")
"binds"
>>> result("Hab014VL1VH2-hFc (Fc fusion, humanized mab014, VL-linker-VH-human IgG1 Fc; not shown: linker; human IgG1 Fc fragment) scFv (part 1 of 2): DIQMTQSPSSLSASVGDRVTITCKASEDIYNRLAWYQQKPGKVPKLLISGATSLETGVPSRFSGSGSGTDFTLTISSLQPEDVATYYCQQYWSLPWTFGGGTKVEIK scFv (part 2 of 2): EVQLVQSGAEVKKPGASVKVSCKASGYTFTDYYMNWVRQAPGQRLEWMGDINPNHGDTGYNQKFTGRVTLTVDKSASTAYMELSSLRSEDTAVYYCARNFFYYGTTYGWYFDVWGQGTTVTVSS")
"binds"
